Source of measurements: patent US7556930B2

Molecular target: full length human CD39L3 (Homo sapiens)
Construct: Cells were transiently transfected with the full length human CD39L3 clone; expressed in transfected cells; host or cells: HEK293 cells, transiently transfected; frozen and thawed intact cells
Assay: Piper Phosphate Assay of CD39L3 nucleotide hydrolysis activity in transiently transfected HEK293 cells
Type: biochemical
Settings: 40 uM ADP+5 mM MgCl2; HEK293 cells transiently transfected with full length human CD39L3; read-out: IC50, inhibition of CD39L3
pIC50: −log10 of the molar value.

| Mol | pIC50 |
| --- | --- |
| CCN(CC)c1ncnc2c1ncn2[C@@H]1O[C@H](COP(=O)(O)OP(=O)(O)C(Br)(Br)P(=O)(O)O)[C@@H](O)[C@H]1O | 4.24 |

* * *

Biological target: full length human CD39L3 (Homo sapiens, UniProt O75355)
Construct: Cells were transiently transfected with the full length human CD39L3 clone; expressed in transfected cells; host or cells: HEK293 cells, transiently transfected; frozen and thawed intact cells
Sequence (O75355 whole entry A496V): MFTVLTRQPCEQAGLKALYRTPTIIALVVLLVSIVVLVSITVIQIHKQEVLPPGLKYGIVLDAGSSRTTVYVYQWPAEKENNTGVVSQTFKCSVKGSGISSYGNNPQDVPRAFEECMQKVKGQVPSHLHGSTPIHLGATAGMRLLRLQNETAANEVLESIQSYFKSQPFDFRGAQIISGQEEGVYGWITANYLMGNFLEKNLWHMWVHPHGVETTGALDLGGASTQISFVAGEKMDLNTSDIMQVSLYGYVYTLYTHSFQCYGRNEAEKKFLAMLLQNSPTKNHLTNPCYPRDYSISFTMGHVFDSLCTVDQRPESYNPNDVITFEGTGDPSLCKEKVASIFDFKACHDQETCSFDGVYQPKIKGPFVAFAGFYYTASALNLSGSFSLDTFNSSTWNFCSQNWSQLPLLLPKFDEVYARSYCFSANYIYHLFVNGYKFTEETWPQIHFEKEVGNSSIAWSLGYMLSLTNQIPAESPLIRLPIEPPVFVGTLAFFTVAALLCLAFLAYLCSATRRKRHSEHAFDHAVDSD
Test: Piper Phosphate Assay of CD39L3 nucleotide hydrolysis activity in transiently transfected HEK293 cells
Format: biochemical
Conditions: 65 μM ATP+5 mM CaCl2; HEK293 cells transiently transfected with full length human CD39L3; read-out: IC50, inhibition of CD39L3

| Mol | IC50, µM |
| --- | --- |
| CCN(CC)c1ncnc2c1ncn2[C@@H]1O[C@H](COP(=O)(O)OP(=O)(O)C(Br)(Br)P(=O)(O)O)[C@@H](O)[C@H]1O | 49 |

* * *

Biological target: full length human CD39L3 (Homo sapiens)
Construct: Cells were transiently transfected with the full length human CD39L3 clone; expressed in transfected cells; host or cells: HEK293 cells, transiently transfected; frozen and thawed intact cells
Experiment: Piper Phosphate Assay of CD39L3 nucleotide hydrolysis activity in transiently transfected HEK293 cells
Assay type: biochemical
Conditions: 40 uM ADP+5 mM CaCl2; HEK293 cells transiently transfected with full length human CD39L3; read-out: IC50, inhibition of CD39L3
pIC50: −log10 of the molar value.

| Mol | pIC50 |
| --- | --- |
| CCN(CC)c1ncnc2c1ncn2[C@@H]1O[C@H](COP(=O)(O)OP(=O)(O)C(Br)(Br)P(=O)(O)O)[C@@H](O)[C@H]1O | 4.23 |
